compounds and their reported IC50
Tested on: RAW cells
EXPERIMENT_DESCRIPTION: Orcinol-stained TLC of GM1 in RAW cell extract
Type: cell-based
ASSAY_CONTEXT: GM1 in RAW cells; stated only as comparable to 50 μM; read-out: apparent IC50 estimated from orcinol stained RAW TLC

> print(dat)
                                smiles.repr  target.entity  measured.value
1  CCCCN1C[C@H](O)[C@@H](O)[C@H](O)[C@H]1CO      RAW cells          ~50 µM

// query Data request, read-out IC50, for "CCCCN1C[C@H](O)[C@@H](O)[C@@H](O)[C@H]1CO"
// result ~50 µM
